- System: SNB-75
- procedure.summary: NCI tumour cell line growth inhibition, 48 h
The source made the active and inactive calls. Cut-off read from the data, not from the text of the source: active = GI50 up to about 1.1 µM and inactive = higher.
API: response.call in 1 = active, -1 = inactive

compound | assigned.label
CCOC(=O)c1ccc(C(=O)n2ccnc2)[nH]1 | -1

Lab note: next compound to report on.
INPUT: Name the outcome recorded for Cc1ccccc1N1C(=O)C2C=CC(n3[nH]c(=O)n(Cc4ccccc4)c3=O)CC2C1=O (stereo not given) in the assay.
OUTPUT: -1

###

- Tested on: RXF 393
- procedure.summary: NCI tumour cell line growth inhibition, 48 h
Active and inactive are the calls of the source. Rule as the data show it: active = GI50 up to about 1.1 µM and inactive = higher.
Measured GI50, listed per entry.

Use the examples below as a reference point.
molecule | test.target | GI50
CCCCCCCCCCC(O)CCCCCCC(=O)O (stereo not given) | RXF 393 | 34.1 µM (inactive)
Cc1ccc(S(=O)(=O)NC(=O)NC(CCCCNC(=N)N)C(=O)O)cc1 (stereo not given) | RXF 393 | > 100 µM (inactive)
COc1cc(/C=C(\NC(=O)c2ccccc2)c2nc3cncnc3[nH]2)cc(OC)c1OC | RXF 393 | > 100 µM (inactive)

INPUT: GI50 lookup needed for `COc1c(Br)cc(Br)c(OC)c1-c1[nH]c(Br)c(Br)c1Br` , thanks.
OUTPUT: 1.36 µM (inactive)

INPUT: Give its GI50 value. Item: CC(=O)OC1/C=C(\C)C(OC(C)=O)C/C=C(/C)CCC2C(/C=C/C1=O)C2(C)C (stereo not given)
OUTPUT: 79.4 µM (inactive)

INPUT: Report GI50 for COC1C(OC(=O)/C=C/C=C/C=C/C=C\C(=O)O)CCC2(CO2)C1C1(C)OC1CC=C(C)C (stereo not given) please.
OUTPUT: > 100 µM (inactive)

INPUT: For the molecule `O=[N+]([O-])c1ccc2[nH]nc(OCc3ccccn3)c2c1` , what GI50 is on record?
OUTPUT: > 100 µM (inactive)

INPUT: Can you share its GI50? I mean this molecule: `COc1ccc(OC)c2c(Nc3ccc(S(=O)(=O)O)c4cc(S(=O)(=O)O)cc(S(=O)(=O)O)c34)cc(C)nc12`
OUTPUT: > 100 µM (inactive)

INPUT: Which GI50 value is on record for `CN(C)CCCNc1c2ccccc2[n+]([O-])c2ccccc12` ?
OUTPUT: 47.8 µM (inactive)

INPUT: # query: GI50 of entry CC(C)=CCN1c2ccc(Cl)cc2NC(=O)CC1C (stereo not given)
OUTPUT: 24.9 µM (inactive)
